- systemTested: Human CD38 (Homo sapiens (Human), UniProt P28907)
- Sequence (P28907 whole entry): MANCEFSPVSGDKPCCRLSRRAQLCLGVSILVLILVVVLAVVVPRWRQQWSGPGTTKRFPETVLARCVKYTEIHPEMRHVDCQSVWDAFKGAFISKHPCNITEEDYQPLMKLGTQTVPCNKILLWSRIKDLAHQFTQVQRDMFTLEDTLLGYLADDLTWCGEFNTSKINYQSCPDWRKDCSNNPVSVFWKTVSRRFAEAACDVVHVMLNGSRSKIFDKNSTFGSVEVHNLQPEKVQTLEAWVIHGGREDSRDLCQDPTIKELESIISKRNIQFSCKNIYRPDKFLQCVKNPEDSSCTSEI
- protocol: CD38 enzyme assay
- Format: biochemical
- runConditions: 2 nM CD38, NAD+ substrate, absorbance at 405 nm
pIC50: −log10 of the molar value.
Kindly supply the reported pIC50 values for the records listed here.

Examples with answers:
Specify reported pIC50 for the molecule shown: `O=C(NC1CCC1)c1nc(-n2ccnc2)nc2cc[nH]c12`
> 8.00

Specify reported pIC50 for the molecule shown: `O=C(Nc1ccnc(Cl)c1)c1nc(-n2ccnc2)nc2cc[nH]c12`
> 8.00

Specify reported pIC50 for the molecule shown: O=C(N[C@H]1CC[C@@](O)(C(F)(F)F)CC1)c1nc(-n2ccnc2)nc2cc[nH]c12 [Example 120b]
7.00 to 8.00

Specify reported pIC50 for the molecule shown: `COCCO[C@H]1CC[C@H](NC(=O)c2cc(-n3ccnc3)cc3cc(CN)[nH]c23)CC1`
7.00 to 8.00

Specify reported pIC50 for the molecule shown: `O=C(NC1CCC(F)(F)CC1)c1nc(-n2ccnc2)nc2cn[nH]c12`
> 8.00

Fill in pIC50 for each of the 2 molecules listed.
1. COCCO[C@H]1CC[C@H](NC(=O)c2nc(-n3ccnc3C)nc3cc[nH]c23)CC1
2. CO[C@H]1CC[C@H](NC(=O)c2nc(-n3ccnc3)nc3ccsc23)CC1

["< 6.00", "> 8.00"]

Specify reported pIC50 for the molecule shown: `O=C(N[C@H]1CC[C@@H](NCC(F)(F)F)CC1)c1nc(-n2ccnc2)cc2cn[nH]c12`
7.00 to 8.00
